- assay comment: PK s.c. in rats with vitamin D and warfarin-induced VC
- Assay type: in vivo
- measurement parameters: Sprague-Dawley, rat, plasma, sc, 50 mg/kg, 50 mg/kg s.c., Healthy (before induction of calcification)
readout: half-life (h)
Express the result in h but write the number alone.

Ask | Entry COCCOCCO[C@@H]1[C@@H](OP(=O)(O)O)[C@H](OCCOCCOC)[C@@H](OP(=O)(O)O)[C@@H](OP(=O)(O)O)[C@H]1OP(=O)(O)O : reported half-life = ?
Reply | 3.92

* * *

- assay comment: PK in healthy rats, s.c.
- Type: in vivo, male Sprague-Dawley rats
- measurement parameters: male, Sprague-Dawley, rat, plasma, sc; 100 mg/kg s.c.
readout: Tmax

Ask | Entry O=P(O)(O)O[C@H]1[C@H](OP(=O)(O)O)[C@@H](OP(=O)(O)O)[C@H](OP(=O)(O)O)[C@@H](OP(=O)(O)O)[C@H]1OP(=O)(O)O [IP6, myo-Inositol hexakisphosphate] : reported Tmax = ?
Reply | 12 min

* * *

- assay comment: VSMC viability (MTS) in CPP2-supplemented medium
- Type: cell-based, human
- measurement parameters: human, 10 µM with CPP2; read-out: VSMC viability (MTS), % of medium control
readout: viability at 48 h, 10 µM (%)
Express the result in % but write the number alone.

Ask | Entry COCCOCCO[C@@H]1[C@@H](OP(=O)(O)O)[C@H](OCCOCCOC)[C@@H](OP(=O)(O)O)[C@@H](OP(=O)(O)O)[C@H]1OP(=O)(O)O : reported viability at 48 h, 10 µM = ?
Reply | 104

* * *

- assay comment: PK in healthy rats, i.v. bolus
- Assay type: in vivo, male Sprague-Dawley rats
- measurement parameters: male, Sprague-Dawley, rat, in vivo, iv; 10 mg/kg i.v.
readout: Cmax (µM)
Express the result in µM but write the number alone.

Ask | Entry COCCOCCO[C@@H]1[C@@H](OP(=O)(O)O)[C@H](OCCOCCOC)[C@@H](OP(=O)(O)O)[C@@H](OP(=O)(O)O)[C@H]1OP(=O)(O)O : reported Cmax = ?
Reply | 52

* * *

- assay comment: PK i.v. bolus in healthy and adenine/high-phosphate-diet (uremic) rats
- Type: in vivo, male Sprague-Dawley rats
- measurement parameters: male, Sprague-Dawley, rat, plasma, iv, 10 mg/kg, Uremic, i.v., Time 0.25 h, individual rats; read-out: plasma concentration (Figure 4g)
readout: concentration at 0.25 h (µM)
Express the result in µM but write the number alone.

Ask | Entry COCCOCCO[C@@H]1[C@@H](OP(=O)(O)O)[C@H](OCCOCCOC)[C@@H](OP(=O)(O)O)[C@@H](OP(=O)(O)O)[C@H]1OP(=O)(O)O : reported concentration at 0.25 h = ?
Reply | 27.7

* * *

- assay comment: PK in healthy rats, i.v. bolus
- Assay type: in vivo, male Sprague-Dawley rats
- measurement parameters: male, Sprague-Dawley, rat, plasma, iv; 10 mg/kg i.v. bolus; read-out: apparent volume of distribution
readout: Vd (L/kg)
Express the result in L/kg but write the number alone.

Ask | Entry O=P(O)(O)O[C@H]1[C@H](OP(=O)(O)O)[C@@H](OP(=O)(O)O)[C@H](OP(=O)(O)O)[C@@H](OP(=O)(O)O)[C@H]1OP(=O)(O)O [IP6, myo-Inositol hexakisphosphate] : reported Vd = ?
Reply | 0.958

* * *

- assay comment: PK in healthy rats, s.c.
- Assay type: in vivo, male Sprague-Dawley rats
- measurement parameters: male, Sprague-Dawley, rat, in vivo, sc; 10 mg/kg s.c.; read-out: Cmax
readout: Cmax
Provide the measurement as a number trailed by its unit.

Ask | Entry COCCOCCO[C@@H]1[C@@H](OP(=O)(O)O)[C@H](OCCOCCOC)[C@@H](OP(=O)(O)O)[C@@H](OP(=O)(O)O)[C@H]1OP(=O)(O)O : reported Cmax = ?
Reply | 12 µM

* * *

- assay comment: PK i.v. bolus in healthy and adenine/high-phosphate-diet (uremic) rats
- Format: in vivo, male Sprague-Dawley rats
- measurement parameters: male, Sprague-Dawley, rat, serum, iv, 10 mg/kg, 10 mg/kg i.v. bolus, Healthy
readout: AUC(0-inf) (µM·h)
Express the result in µM·h but write the number alone.

Ask | Entry COCCOCCO[C@@H]1[C@@H](OP(=O)(O)O)[C@H](OCCOCCOC)[C@@H](OP(=O)(O)O)[C@@H](OP(=O)(O)O)[C@H]1OP(=O)(O)O : reported AUC(0-inf) = ?
Reply | 18.5

* * *

- assay comment: PK i.v. bolus in healthy and adenine/high-phosphate-diet (uremic) rats
- Assay type: in vivo, male Sprague-Dawley rats
- measurement parameters: male, Sprague-Dawley, rat, plasma, iv, 10 mg/kg, Healthy, i.v., Time 10 min, individual rats; read-out: plasma concentration (Figure 4g)
readout: concentration at 10 min (µM)
Express the result in µM but write the number alone.

Ask | Entry COCCOCCO[C@@H]1[C@@H](OP(=O)(O)O)[C@H](OCCOCCOC)[C@@H](OP(=O)(O)O)[C@@H](OP(=O)(O)O)[C@H]1OP(=O)(O)O : reported concentration at 10 min = ?
Reply | 36.1

* * *

- assay comment: VSMC viability (MTS) in CPP2-supplemented medium
- Assay type: cell-based, human
- measurement parameters: human, 100 µM with CPP2; read-out: VSMC viability (MTS), % of medium control
readout: viability at 48 h, 100 µM
Provide the measurement as a number trailed by its unit.

Ask | Entry COCCOCCO[C@@H]1[C@@H](OP(=O)(O)O)[C@H](OCCOCCOC)[C@@H](OP(=O)(O)O)[C@@H](OP(=O)(O)O)[C@H]1OP(=O)(O)O : reported viability at 48 h, 100 µM = ?
Reply | 93.7%

* * *

- assay comment: VSMC viability (MTS) in high-CaP medium
- Format: cell-based, human
- measurement parameters: human, primary human VSMCs, 10 µM in high-CaP medium; read-out: VSMC viability (MTS), % of medium control
readout: viability at 5 days, 10 µM

Ask | Entry O=P(O)(O)O[C@H]1[C@H](OP(=O)(O)O)[C@@H](OP(=O)(O)O)[C@H](OP(=O)(O)O)[C@@H](OP(=O)(O)O)[C@H]1OP(=O)(O)O [IP6, myo-Inositol hexakisphosphate] : reported viability at 5 days, 10 µM = ?
Reply | 69.9%

* * *

- assay comment: PK in healthy rats, i.v. bolus
- Assay type: in vivo, male Sprague-Dawley rats
- measurement parameters: male, Sprague-Dawley, rat, plasma, iv; 10 mg/kg i.v.
- Procedure: All PK studies in healthy animals were performed by the contract research organization Aphad S.r.l. (Milan, Italy). In all studies, compounds were administered as a salt, and the doses and plasma quantitation refer to the acid form. PK parameters listed in Supplementary Table 13 were derived from measured plasma concentrations applying noncompartmental analysis. […]
readout: Cmax (µM)
Express the result in µM but write the number alone.

Ask | Entry O=P(O)(O)O[C@H]1[C@H](OP(=O)(O)O)[C@@H](OP(=O)(O)O)[C@H](OP(=O)(O)O)[C@@H](OP(=O)(O)O)[C@H]1OP(=O)(O)O [IP6, myo-Inositol hexakisphosphate] : reported Cmax = ?
Reply | 13

* * *

- assay comment: PK s.c. in healthy and adenine/high-phosphate-diet (uremic) rats
- Assay type: in vivo
- measurement parameters: male, Sprague-Dawley, rat, serum, sc, 10 mg/kg, 10 mg/kg s.c., Healthy
readout: AUC(0-inf)
Provide the measurement as a number trailed by its unit.

Ask | Entry COCCOCCO[C@@H]1[C@@H](OP(=O)(O)O)[C@H](OCCOCCOC)[C@@H](OP(=O)(O)O)[C@@H](OP(=O)(O)O)[C@H]1OP(=O)(O)O : reported AUC(0-inf) = ?
Reply | 19.7 µM·h

* * *

- assay comment: PK s.c. in rats with vitamin D and warfarin-induced VC
- Type: in vivo
- measurement parameters: Sprague-Dawley, rat, plasma, sc, 50 mg/kg, 50 mg/kg s.c., Healthy
readout: Cmax (µM)
Express the result in µM but write the number alone.

Ask | Entry COCCOCCO[C@@H]1[C@@H](OP(=O)(O)O)[C@H](OCCOCCOC)[C@@H](OP(=O)(O)O)[C@@H](OP(=O)(O)O)[C@H]1OP(=O)(O)O : reported Cmax = ?
Reply | 49

* * *

- assay comment: PK s.c. in rats with vitamin D and warfarin-induced VC
- Format: in vivo
- measurement parameters: Sprague-Dawley, rat, plasma, sc, 50 mg/kg, 50 mg/kg s.c., Cardiovascular calcification model
readout: AUC(0-inf) (µM·h)
Express the result in µM·h but write the number alone.

Ask | Entry COCCOCCO[C@@H]1[C@@H](OP(=O)(O)O)[C@H](OCCOCCOC)[C@@H](OP(=O)(O)O)[C@@H](OP(=O)(O)O)[C@H]1OP(=O)(O)O [(OEG2)2-IP4] : reported AUC(0-inf) = ?
Reply | 152
